# credit: patent US10597388B2

Test system: velvetleaf (Abutilon theophrasti)
METHOD NOTES: Test C greenhouse herbicide test, pre- and postemergence
Format: in vivo
MEASUREMENT CONTEXT: Preemergence, 125 g ai/ha; scale 0 to 100, 0 is no effect, 100 is complete control
QUANTITY NAME: Plant response rating, Velvetleaf
Note: the reply should be a number with no unit written.

Prompt: For the molecule Cc1nn(C)c(=O)c(-c2c(C)sc3ccc(C(F)(F)F)cc23)c1O [Compound 121] , report Plant response rating, Velvetleaf.
Response: 85

Prompt: Supply reported Plant response rating, Velvetleaf belonging to this molecule: Cc1ccc2ccccc2c1-c1c(O)c(Br)nn(C)c1=O [Compound 23]
Response: 100

Prompt: Quickly give me recorded Plant response rating, Velvetleaf for Cc1ccc2ccccc2c1-c1c(OC(=O)OC(C)C)c(C)nn(C)c1=O [Compound 72]
Response: 80

Prompt: Note Plant response rating, Velvetleaf for the molecule shown: CCc1sc2ccc(C)cc2c1-c1c(O)c(C)nn(C)c1=O [Compound 47]
Response: 100

Prompt: Give recorded Plant response rating, Velvetleaf. CCCC(=O)Oc1c(C)nn(C)c(=O)c1-c1c(C)sc2ccc(C)cc12 [Compound 105]
Response: 90

Prompt: For the molecule Cc1nn(C)c(=O)c(-c2cccc3ccccc23)c1O [Compound 11] , report Plant response rating, Velvetleaf.
Response: 90

Prompt: Note down Plant response rating, Velvetleaf recorded for Cn1nc(Br)c(O)c(-c2cccc3ccccc23)c1=O [Compound 20]
Response: 100

Prompt: Look up Plant response rating, Velvetleaf of COC(=O)Oc1c(C)nn(C)c(=O)c1-c1ccc(Br)c2ccccc12 [Compound 145] and report it.
Response: 95

Prompt: State, in one line, measured Plant response rating, Velvetleaf of CC(=O)Oc1c(Cl)nn(C)c(=O)c1-c1c(C)sc2ccc(Cl)cc12 [Compound 116]
Response: 100
